Test system: NCI-H810 (Non-Small Cell Lung Carcinoma);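 further: after 72 h of two-drug dosing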
Assay: Bliss excess, mean over the matrix (fraction); higher = more synergy
measurementType: Bliss excess
// return just the number, without any unit appended

get_value(item= Cc1c2c(nn1C)CSCc1cc(n(C)n1)CSc1cc(c3ccccc3c1)OCCCc1c(C(=O)O)n(C)c3c-2c(Cl)ccc13 [AZD5991] + C[C@@H](Nc1cc(F)cc(F)c1)c1cc(C(=O)N(C)C)cc2c(=O)cc(N3CCOCC3)oc12 [AZD8186] (first compound max 1 µM, 7x7, partner max 3 µM) , readout=Bliss excess) returns -0.034

get_value(item= C[C@@H]1COCCN1c1cc(C2([S@](C)(=N)=O)CC2)nc(-c2ccnc3[nH]ccc23)n1 [AZD6738] + C1CC(C1)(C(=O)[O-])C(=O)[O-].N.N.[Pt+2] [Carboplatin] (first compound max 10 µM, 7x7, partner max 10 µM) , readout=Bliss excess) returns -0.116

get_value(item= Cc1c2c(nn1C)CSCc1cc(n(C)n1)CSc1cc(c3ccccc3c1)OCCCc1c(C(=O)O)n(C)c3c-2c(Cl)ccc13 [AZD5991] + CS(=O)(=O)CCNCc1ccc(-c2ccc3ncnc(Nc4ccc(OCc5cccc(F)c5)c(Cl)c4)c3c2)o1 [Lapatinib] (first compound max 1 µM, 7x7, partner max 10 µM) , readout=Bliss excess) returns -0.0722

get_value(item= N#Cc1cnc(Nc2cc(NC[C@H]3CNCCO3)c(C(F)(F)F)cn2)cn1 [SRA737] + C=CCn1c(=O)c2cnc(Nc3ccc(N4CCN(C)CC4)cc3)nc2n1-c1cccc(C(C)(C)O)n1 [AZD1775] (first compound max 10 µM, partner max 1 µM) , readout=Bliss excess) returns 0.0718

get_value(item= C[C@@H]1COCCN1c1cc(C2([S@](C)(=N)=O)CC2)nc(-c2ccnc3[nH]ccc23)n1 [AZD6738] + O=C(c1cc(Cc2n[nH]c(=O)c3ccccc23)ccc1F)N1CCN(C(=O)C2CC2)CC1 [Olaparib] (first compound max 10 µM, 7x7, partner max 10 µM) , readout=Bliss excess) returns -0.008
